Measured values drawn from patent US10703756B2 for this set.

Test: Stability of JAK3 Covalent Inhibitors in Human Whole Blood
Type: in vitro ADME
Conditions: both sexes, 1 μM test compound, 37° C., 180 min incubation, read-out: Human blood stability t1/2
Endpoint Label: half-life at 1 μM

See these solved cases before continuing.
C=CC(=O)N1CCN(c2cnc3[nH]cc(C(=O)N[C@H]4CCO[C@H]4C)c3n2)CC1(C)C : > 6 h
C=CC(=O)N1CCC(Nc2cnc3[nH]cc(C(=O)NCCC4CC4)c3n2)CC1 : 5.57 h
C=CC(=O)N1C[C@@H](CC#N)C[C@@H](Nc2ncnc3[nH]ccc23)C1 (single isomer, unassigned) [Example 106] : 1.87 h
C=CC(=O)N1C[C@H](Oc2cnc3[nH]cc(C(=O)N[C@@H](C)COC)c3n2)CC[C@@H]1C (single isomer, unassigned) : > 6 h
C=CC(=O)N1CC[C@@H](Nc2cnc3[nH]cc(C(=O)N[C@H](C)COC)c3n2)[C@@H](OC)C1 : 5.52 h
C=CC(=O)N1CCC(Nc2cnc3[nH]cc(C(=O)NCC4CC4)c3n2)CC1 : 5.43 h

# ---- query compound ----
// lookup half-life at 1 μM for C=CC(=O)N1CC[C@H](Nc2cnc3[nH]cc(C(=O)NCC)c3n2)[C@@H](C)C1 (single isomer, unassigned) 3.37 h

----------
Target: JAK3 enzyme (Homo sapiens)
Sequence (P52333 1-1124): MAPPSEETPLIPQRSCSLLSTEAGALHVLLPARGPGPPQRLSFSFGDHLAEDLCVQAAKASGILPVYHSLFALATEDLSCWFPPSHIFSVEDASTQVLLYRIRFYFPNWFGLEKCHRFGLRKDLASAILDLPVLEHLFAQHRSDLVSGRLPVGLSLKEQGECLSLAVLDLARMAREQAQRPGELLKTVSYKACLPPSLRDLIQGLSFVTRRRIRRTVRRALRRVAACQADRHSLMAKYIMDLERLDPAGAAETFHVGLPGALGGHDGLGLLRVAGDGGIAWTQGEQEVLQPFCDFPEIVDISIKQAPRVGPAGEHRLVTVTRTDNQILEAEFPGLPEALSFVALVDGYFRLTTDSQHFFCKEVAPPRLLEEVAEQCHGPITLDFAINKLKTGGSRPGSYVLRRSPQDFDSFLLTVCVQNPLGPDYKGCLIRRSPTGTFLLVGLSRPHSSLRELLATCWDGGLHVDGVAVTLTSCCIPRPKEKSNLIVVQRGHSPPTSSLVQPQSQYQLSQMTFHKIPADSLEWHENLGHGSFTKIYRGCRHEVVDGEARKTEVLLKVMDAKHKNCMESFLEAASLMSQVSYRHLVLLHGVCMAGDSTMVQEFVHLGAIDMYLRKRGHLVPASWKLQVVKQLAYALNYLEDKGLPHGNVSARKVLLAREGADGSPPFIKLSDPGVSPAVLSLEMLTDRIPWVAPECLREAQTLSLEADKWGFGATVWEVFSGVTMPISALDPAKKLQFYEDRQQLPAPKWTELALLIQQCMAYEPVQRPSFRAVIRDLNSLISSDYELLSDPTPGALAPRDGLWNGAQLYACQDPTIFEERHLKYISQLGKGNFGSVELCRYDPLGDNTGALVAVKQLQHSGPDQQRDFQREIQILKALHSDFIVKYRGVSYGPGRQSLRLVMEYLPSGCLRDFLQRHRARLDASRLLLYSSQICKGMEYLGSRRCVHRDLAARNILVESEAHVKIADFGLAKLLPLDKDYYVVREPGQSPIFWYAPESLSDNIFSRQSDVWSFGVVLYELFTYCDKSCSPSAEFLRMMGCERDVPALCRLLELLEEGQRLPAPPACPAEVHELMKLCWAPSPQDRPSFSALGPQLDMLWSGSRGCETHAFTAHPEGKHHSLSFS
Assay: JAK Caliper Enzyme Assay at 4 μM ATP
Assay type: biochemical
Items are presented alongside their recorded pIC50.
// field semantics: pIC50 = negative decimal log of concentration (mol/L)

See these solved cases before continuing.
C=CC(=O)N1CCC(Oc2cnc3[nH]cc(C(=O)N[C@@H]4CC[C@H](F)C4)c3n2)CC1 : 9.38
C=CC(=O)N1CCC(Oc2cnc3[nH]cc([C@@H](C)O)c3n2)CC1 (single isomer, unassigned) : 7.47
C=CC(=O)N1CC[C@H](Nc2cnc3[nH]cc(C(=O)NC[C@H](C)CC(F)(F)F)c3n2)[C@H](OC)C1 : 8.94
C=CC(=O)N1CCN(c2cnc3[nH]cc(C(=O)NC4CCCC4)c3n2)CC1 (racemic) : 9.50
C=CC(=O)N1CCC(Oc2cnc3[nH]cc(C(=O)NCCC)c3c2)CC1 : 7.62
C=CC(=O)N1CC[C@@H](Nc2cnc3[nH]cc(C(=O)N[C@H](C)COC)c3n2)C[C@H]1C (single isomer, unassigned) : 8.56
C=CC(=O)N1CCC(C)(Nc2cnc3[nH]cc(C(=O)NC4CCC4)c3n2)CC1 : 9.38
C=CC(=O)N1CC(Nc2cnc3[nH]cc(C(=O)NCC(F)(F)F)c3n2)C2(CC2)C1 (centres unmarked) : 7.21
C=CC(=O)N1CCCC1COc1cnc2[nH]cc(C(=O)N[C@@H](C)COC)c2n1 (mixture of isomers) : 8.83
C=CC(=O)N1CCC(Nc2cnc3[nH]cc(C(=O)NCc4ccc(F)c(C#N)c4)c3n2)CC1 : 9.16

Give JAK3 enzyme (Homo sapiens) pIC50 for C=CC(=O)N1CCN(c2cnc3[nH]cc(C(=O)N[C@H](CC)CC#N)c3n2)CC1 9.46

Field entry: C=CC(=O)N1CCC(Nc2cnc3[nH]cc(C(=O)NCc4cc(C5CCC5)nn4C)c3n2)CC1 9.17

Field entry: C=CC(=O)N1CCC(Nc2cnc3[nH]cc(C(=O)NC4CCC4)c3n2)CC1C (racemic) 8.67

Field entry: C=CC(=O)N1CC[C@@H](Nc2cnc3[nH]cc(C(=O)NCC(C)(F)F)c3n2)[C@@H](OC)C1 9.35

Field entry: C=CC(=O)N1CCN(c2cnc3[nH]cc(C(=O)NCC(C)CC(F)(F)F)c3n2)CC1 (racemic) 9.46

Field entry: C=CC(=O)N1CCC(Oc2cnc3[nH]cc(C(=O)N[C@H](C)CC)c3n2)CC1 9.55

Field entry: C=CC(=O)N1CC[C@@H](Nc2cnc3[nH]cc(C(=O)NCC4CCCC4)c3n2)[C@@H](OC)C1 9.13

Field entry: C=CC(=O)N1C[C@@H](O)C[C@@H](Nc2ncnc3[nH]cc(C#N)c23)C1 8.62

Field entry: C=CC(=O)N1CCC(Oc2cnc3[nH]cc(-c4ncn(C)n4)c3n2)CC1 7.83

Field entry: C=CC(=O)N1CCC(C)(Nc2cnc3[nH]cc(C(=O)NCC(C)C)c3n2)CC1 9.37

Field entry: C=CC(=O)N1CC[C@@H](Nc2cnc3[nH]cc(C(=O)NCC)c3n2)[C@@H](C)C1 (single isomer, unassigned) [Example 38] 9.48

Field entry: C=CC(=O)N1CC[C@H](N(C)c2cnc3[nH]cc(C(=O)NCC)c3n2)C1 (single isomer, unassigned) 8.16

Field entry: C=CC(=O)N1CC[C@H](Nc2cnc3[nH]cc(C(=O)NCCC(F)(F)F)c3n2)[C@H](OC)C1 9.30
